Kp listing for selected molecules.
Assay: Brain/plasma ratio was determined in diet-induced obese (DIO) mice
Type: ADME, cell-free
Conditions: mouse, brain and plasma

- Smiles entry: "Nc1ccc2cccc(OCCCNCc3ccc(Cl)c(C(F)(F)F)c3)c2n1"
  Experimental result: 0.96

Okay, next one:
Any idea what its Kp is? The molecule is Nc1ccc2cccc(OCCCNC(=O)c3cccc(Cl)c3)c2n1
0.03

----------
# key: entry, value: IC50
Target: Melanin-concentrating hormone receptor 1 (Homo sapiens)
Sequence (Q99705 whole entry): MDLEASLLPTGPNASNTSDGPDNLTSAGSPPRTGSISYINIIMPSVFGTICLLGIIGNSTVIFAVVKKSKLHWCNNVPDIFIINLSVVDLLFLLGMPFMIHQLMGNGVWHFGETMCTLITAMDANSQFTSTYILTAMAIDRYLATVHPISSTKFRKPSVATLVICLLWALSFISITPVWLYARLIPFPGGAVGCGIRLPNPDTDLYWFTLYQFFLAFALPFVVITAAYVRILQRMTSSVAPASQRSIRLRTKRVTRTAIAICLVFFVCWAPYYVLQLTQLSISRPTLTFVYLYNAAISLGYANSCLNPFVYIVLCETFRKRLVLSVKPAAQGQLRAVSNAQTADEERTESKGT
Experiment: Concentration required to inhibit binding of [125I]MCH radioligand to human Melanin-concentrating hormone receptor 1 in IMR-32 I3.4.2 cell membranes
The figure you give is taken to be in nM; do not add the unit.

Guide cases for IC50, answers given:
- Compound: "Nc1ccc2cccc(O[C@H]3CCN(C(=O)c4ccc5c(c4)OCO5)C3)c2n1"
  IC50 [nM]: 730
- Compound: "CC(C)(C)c1ccc(S(=O)(=O)N2CC[C@H](Oc3cccc4ccc(N)nc34)C2)cc1"
  IC50 [nM]: 210
- Compound: "Nc1ccc2cccc(O[C@H]3CCN(Cc4ccc5c(c4)OCO5)C3)c2n1"
  IC50 [nM]: 70
- Compound: "CNc1ccc2cccc(OC3CCN(c4ccc5c(c4)OCCO5)C3)c2n1 (stereo not given)"
  IC50 [nM]: 25.6
- Compound: "CC(C)Cc1ccc(N2CCC(Oc3cccc4ccc(N)nc34)C2)cc1 (stereo not given)"
  IC50 [nM]: 1.2

Bench note: what IC50 did Nc1ccc2cccc(OC3CCN(c4ccc5c(c4)OC(F)(F)O5)C3)c2n1 (stereo not given) show?
0.9

Another: Nc1ccc2cccc(O[C@@H]3CCN(Cc4ccccc4)C3)c2n1
580

How about this compound: Nc1ccc2cccc(OC3CCN(c4ccc5c(c4)OCCO5)C3)c2n1 (stereo not given)
2.7

Try this compound too: CC(C)(C)c1ccc(CN2CC[C@H](Oc3cccc4ccc(N)nc34)C2)cc1
1
